molecular target: T1, AAV5 (adeno-associated virus 5, Assembled 60-mer capsid of VP1/VP2/VP3 (nested products of one cap gene), amine-coupled to a CM5 chip; the letters give one VP1 subunit only.); test: SPR, AAV amine-coupled to CM5 chip
T1 construct: also called adeno-associated virus serotype 5
readoutType: pKd
Numbers only, as −log10 of the molar value.

binder	pKd
A4-C6 (bispecific antibody) VQLQESGGGLVQPGGSLRLSCAASGSNFRINTMGWYRQAPGKQRELVAPVTRGGSTNYADSVKGRFTISRDNAKNTVYLQMNSLRPEDTAVYYCHVDEVRESSWTTSNLWGQGTQVTVSSGGGGSGGGGSGGGGSVQLQESGGGLVQPGGSLRLSCAASGSNFSINTMGWYRQAPGKQRELVAALTRGGSTNYADSVKGRFTISRDNAKNTVYLQMNSLRPEDTAVYYCHVDEVRESSWTTSNLWGQGTQVTVSSGGGGSGGGGSGGGGSVQLQESGGGLVQPGGSLRLSCAASGSNFSINTMGWYRQAPGKQRELVATVTRGGDTNYADSVKGRFTISRDNAKNTVYLQMNSLRPEDTAVYYCHVDEIRESSWTTSNLWGQGTQVTVSS	9.11

Below are some binders; for each one, tell me its pKd.
1. A4-B2 (bispecific antibody) VQLQESGGGLVQAGGSLRLSCAASGSRFSINTMGWYRQAPGKQREFVATVTRGGNTNYAESVKGRFTISRDNAKNTVYLQMNSLRPEDTAVYYCHVDEVRDSSWTTSNIWGQGTQVTVSSGGGGSGGGGSGGGGSVQLQESGGGLVQAGGSLRLSCAASGSTFSINTMGWYRQAPGKQRELVATITRGGNTNYADSVKGRFTISRDNAKNTVYLQMNSLRPEDTAVYYCHVDEVRQSSWTTSNLWGQGTQVTVSS
2. A4-C7 (bispecific antibody) VQLQESGGGLVQPGGSLRLSCAASGSNFSINTMGWYRQAPGKQRELVATVTRGGDTNYADSVKGRFTISRDNAKNTVYLQMNSLRPEDTAVYYCHVDEIRESSWTTSNLWGQGTQVTVSSGGGGSGGGGSGGGGSVQLQESGGGLVQPGGSLRLSCAASGSNFRINTMGWYRQAPGKQRELVAPVTRGGSTNYADSVKGRFTISRDNAKNTVYLQMNSLRPEDTAVYYCHVDEVRESSWTTSNLWGQGTQVTVSSGGGGSGGGGSGGGGSVQLQESGGGLVQPGGSLRLSCAASGSSFTINTMGWYRQAPGKQRELVAAVTRGGSTNYAGSVKGRFTISRDNAKNTIYLQMNSLRPEDTAVYYCHVDEIRQSSWTTSNLWGQGTQVTVSS
3. A4-C2 (VHH) VQLQESGGGLVQPGGSLRLSCAASGSAFSINTMGWYRQAPGKQRELVASVTPGGSTNYADSVKGRFTISRDNAKNTIYLQMNSLRPEDTAVYYCHLDEVRESSWTTSNLWGQGTQVTVSSGGGGSGGGGSGGGGSVQLQESGGGLVQPGGSLRLSCAASGSAFSINTMGWYRQAPGKQRELVASVTPGGSTNYADSVKGRFTISRDNAKNTIYLQMNSLRPEDTAVYYCHLDEVRESSWTTSNLWGQGTQVTVSSGGGGSGGGGSGGGGSVQLQESGGGLVQPGGSLRLSCAASGSAFSINTMGWYRQAPGKQRELVASVTPGGSTNYADSVKGRFTISRDNAKNTIYLQMNSLRPEDTAVYYCHLDEVRESSWTTSNLWGQGTQVTVSS
4. A4-C8 (bispecific antibody) VQLQESGGGLVQPGGSLRLSCAASGSNFRINTMGWYRQAPGKQRELVAPVTRGGSTNYADSVKGRFTISRDNAKNTVYLQMNSLRPEDTAVYYCHVDEVRESSWTTSNLWGQGTQVTVSSGGGGSGGGGSGGGGSVQLQESGGGLVQPGGSLRLSCAASGSNFSINTMGWYRQAPGKQRELVATVTRGGDTNYADSVKGRFTISRDNAKNTVYLQMNSLRPEDTAVYYCHVDEIRESSWTTSNLWGQGTQVTVSSGGGGSGGGGSGGGGSVQLQESGGGLVQPGGSLRLSCAASGSNFSINTMGWYRQAPGKQRELVAALTRGGSTNYADSVKGRFTISRDNAKNTVYLQMNSLRPEDTAVYYCHVDEVRESSWTTSNLWGQGTQVTVSS

Reply:
1. 8.13
2. 10.14
3. 9.16
4. 9.16

Values compiled from patent US20260062463A1.
